assay: in vitro; conditions: human, Caco-2, Permeability coefficient (Papp) Caco-2 cells (A -> B)
endpoint_label: Papp A→B at 2 h (nm/s)

| compound | endpoint_label | assay_result |
| --- | --- | --- |
| OCCOCCOCCN1CCN(CC(O)CN2c3ccccc3Sc3ccc(C(F)(F)F)cc32)CC1 (stereo not drawn) [MT-016] | Papp A→B at 2 h | 125 |
| CN1CCN(CCCN2c3ccccc3Sc3ccc(S(=O)(=O)N(C)C)cc32)CC1 [Thioproperazine Dimesilate] | Papp A→B at 2 h | 40.7 |
| CN1CCN(CCCN2c3ccccc3Sc3ccc(Cl)cc32)CC1 [Prochloperazine] | Papp A→B at 2 h | 12.9 |
| FC(F)(F)c1ccc2c(c1)N(CCCCN1CCCCC1)c1ccccc1S2 [MT-009] | Papp A→B at 2 h | 38.1 |
| CC[C@H]1OC(=O)[C@H](C)[C@@H](O[C@H]2C[C@@](C)(OC)[C@@H](O)[C@H](C)O2)[C@H](C)[C@@H](O[C@@H]2O[C@H](C)C[C@H](N(C)C)[C@H]2O)[C@](C)(O)C[C@@H](C)C(=O)[C@H](C)[C@@H](O)[C@]1(C)O [Erythromycin] | Papp A→B at 2 h | 2.1 |
| COCCc1ccc(OCC(O)CNC(C)C)cc1 (stereo not drawn) [Metoprolol] | Papp A→B at 2 h | 338 |

Where do the numbers come from? From patent US11542290B2.
